Each record here notes measured pIC50.
Tested on: MES-SA/MX2 cells
Assay: Cytotoxicity in panel of MDR cell lines, MES-SA/MX2 (72 h and 144 h)
Type: cell-based, human
Details: Homo sapiens, 72 h incubation, read-out: MES-SA/MX2 IC50 72 h
# pIC50 = -log10(concentration in molar units)

[[record]]
sample_smiles = "C#CCCCON(C(=O)[C@@H](NC(=O)[C@H]1CCCCN1C)[C@@H](C)CC)[C@H](C[C@@H](OC(C)=O)c1nc(C(=O)N[C@@H](Cc2ccc(O)cc2)C[C@H](C)C(=O)O)cs1)C(C)C"
quantity_measured = "pIC50"
measured_number = 8.45

[[record]]
sample_smiles = "C#CCCCON(C(=O)[C@@H](NC(=O)[C@H]1CCCCN1C)[C@@H](C)CC)[C@H](C[C@@H](OC(C)=O)c1nc(C(=O)N[C@@H](Cc2ccc(N)cc2)CC(C)(C)C(=O)O)cs1)C(C)C"
quantity_measured = "pIC50"
measured_number = 9.28


## Input Find the recorded pIC50 belonging to "CCCCCCN(C(=O)[C@@H](NC(=O)[C@H]1CCCCN1C)[C@@H](C)CC)[C@H](C[C@@H](OC(C)=O)c1nc(C(=O)N[C@@H](Cc2ccc(N)cc2)CC(C)(C)C(=O)O)cs1)C(C)C" and report it.
## Output 10.23
